Data origin: ChEMBL document CHEMBL1143585

Tested on: MAC15A
Experiment: Cytotoxicity against MAC15A mouse adenocarcinomas of the colon cells
Assay type: functional, cell-based
Conditions: mac15a
result.type: pIC50
Give bare numbers, as −log10 of the molar value.

**Query** Quick one: pIC50 for C[n+]1c2ccccc2cc2[nH]c3cc(Cl)ccc3c21.[Cl-] ?
**Result** 5.09

###

Target: Histidine-rich protein PFHRP-II (Plasmodium falciparum) (UniProt P05227)
Sequence (P05227 whole entry): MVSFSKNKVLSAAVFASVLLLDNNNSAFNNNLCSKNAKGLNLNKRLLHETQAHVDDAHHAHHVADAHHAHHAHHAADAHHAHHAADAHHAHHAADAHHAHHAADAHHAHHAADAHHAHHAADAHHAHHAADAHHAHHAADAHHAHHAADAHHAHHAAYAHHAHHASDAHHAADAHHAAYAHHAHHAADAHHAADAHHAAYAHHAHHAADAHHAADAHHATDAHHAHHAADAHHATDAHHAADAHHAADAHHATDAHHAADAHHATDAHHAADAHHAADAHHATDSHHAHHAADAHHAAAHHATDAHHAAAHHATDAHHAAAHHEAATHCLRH
Experiment: Antiplasmodial activity as IC50 against Beta-hematin formation
Assay type: functional
result.type: BHIA50

These recorded examples may help you get a feel for the data.
{"molecule": "C[n+]1c2ccc(Br)cc2cc2[nH]c3ccccc3c21", "experimental.target": "Histidine-rich protein PFHRP-II (Plasmodium falciparum) (UniProt P05227)", "BHIA50": 0.63}
{"molecule": "C[n+]1c2ccccc2cc2[nH]c3c([N+](=O)[O-])cc([N+](=O)[O-])cc3c21.[Cl-]", "experimental.target": "Histidine-rich protein PFHRP-II (Plasmodium falciparum) (UniProt P05227)", "BHIA50": 0.92}
{"molecule": "C[n+]1c2ccc(F)cc2cc2[nH]c3ccccc3c21.[Cl-]", "experimental.target": "Histidine-rich protein PFHRP-II (Plasmodium falciparum) (UniProt P05227)", "BHIA50": 1.24}
{"molecule": "C[n+]1c2ccccc2cc2[nH]c3ccccc3c21.O=S(=O)([O-])O", "experimental.target": "Histidine-rich protein PFHRP-II (Plasmodium falciparum) (UniProt P05227)", "BHIA50": 1.64}
{"molecule": "COc1ccc2c(c1)cc1[nH]c3ccccc3c1[n+]2C.[Cl-]", "experimental.target": "Histidine-rich protein PFHRP-II (Plasmodium falciparum) (UniProt P05227)", "BHIA50": 1.96}

Each molecule below has a reported value. Please supply its BHIA50.
1. C[n+]1c2ccccc2cc2[nH]c3c([N+](=O)[O-])cccc3c21.[Cl-]
2. CCN(CC)CCCC(C)Nc1ccnc2cc(Cl)ccc12.O=P(O)(O)O.O=P(O)(O)O (centres undefined) [CHLOROQUINE PHOSPHATE]
3. C[n+]1c2ccccc2c(Cl)c2[nH]c3cc(Cl)ccc3c21
4. C[n+]1c2ccc(Br)cc2cc2[nH]c3ccc(Br)cc3c21.[Cl-]

**Result**
1. 0.84
2. 1.44
3. 0.96
4. 1.53

###

System: Mus musculus
Experiment: Mean survival time taken as number of days before illness due to Plasmodium berghei when mice (Mus musculus) treated with 25 mg/kg dose for 4 days
Type: functional
Answer each item with its documented Mean survival time.
Give bare numbers, in days.

Worked set:
{"compound.structure": "C[n+]1c2ccc(Cl)cc2cc2[nH]c3ccc(Br)cc3c21.[Cl-]", "result.number": 15.4}
{"compound.structure": "C[n+]1c2ccccc2cc2[nH]c3cc(Cl)ccc3c21.[I-]", "result.number": 14}

Provide reported Mean survival time for each item, in the same order as listed.
1. C[n+]1c2ccc(Br)cc2cc2[nH]c3ccc([N+](=O)[O-])cc3c21.[Cl-]
2. C[n+]1c2ccc(Br)cc2cc2[nH]c3ccc(Br)cc3c21.[Cl-]

**Result**
1. 13
2. 15

###

Assay: Ionization constant for the compound
Assay type: physicochemical
// label = Satisfied if pKa is not less than 10, otherwise Not satisfied

Solved entries (count: 6):
{"compound.structure": "C[n+]1c2ccccc2cc2[nH]c3c([N+](=O)[O-])cccc3c21.[Cl-]", "assigned.label": "Not satisfied"}
{"compound.structure": "COc1ccc2c(c1)cc1[nH]c3ccccc3c1[n+]2C.[Cl-]", "assigned.label": "Satisfied"}
{"compound.structure": "C[n+]1c2ccccc2c(Cl)c2[nH]c3cc(Cl)ccc3c21", "assigned.label": "Not satisfied"}
{"compound.structure": "C[n+]1c2ccc(Br)cc2cc2[nH]c3ccc(Br)cc3c21.[Cl-]", "assigned.label": "Not satisfied"}
{"compound.structure": "C[n+]1c2ccccc2cc2[nH]c3c([N+](=O)[O-])cc([N+](=O)[O-])cc3c21.[Cl-]", "assigned.label": "Not satisfied"}
{"compound.structure": "C[n+]1c2ccc(F)cc2cc2[nH]c3ccccc3c21.[Cl-]", "assigned.label": "Satisfied"}

Kindly review the next compound as well.
**Query** Hello, I need to know if C[n+]1c2ccccc2cc2[nH]c3ccccc3c21.O=S(=O)([O-])O has measured pKa not below 10. Thanks!
**Result** Satisfied

###

Test system: Plasmodium falciparum
Test: In vitro antiplasmodial activity for Plasmodium falciparum
Assay type: functional, organism-based
Conditions: Plasmodium falciparum
I'd be grateful if you could share measured pIC50 for these entries.
One number for each entry, as −log10 of the molar value.

{"molecule": "C[n+]1c2ccc(F)cc2cc2[nH]c3ccc(Br)cc3c21.[Cl-]", "result.number": 7.20}
{"molecule": "C[n+]1c2ccc(Br)cc2cc2[nH]c3ccc([N+](=O)[O-])cc3c21.[Cl-]", "result.number": 7.15}
{"molecule": "Cc1ccc2cc3[nH]c4ccccc4c3[n+](C)c2c1.[Cl-]", "result.number": 6.83}
{"molecule": "C[n+]1c2cc(Cl)ccc2cc2[nH]c3ccc(Br)cc3c21.[Cl-]", "result.number": 7.43}
{"molecule": "C[n+]1c2ccc(Cl)cc2cc2[nH]c3ccccc3c21.[Cl-]", "result.number": 6.78}

Give pIC50 for each of the items listed below.
1. Cc1ccc2cc3[nH]c4ccc(Br)cc4c3[n+](C)c2c1.[Cl-]
2. C[n+]1c2ccccc2cc2[n-]c3ccccc3c21.Cl [CRYPTOLEPINE HYDROCHLORIDE]
3. C[n+]1c2ccc(F)cc2cc2[nH]c3ccccc3c21.[Cl-]
4. C[n+]1c2ccc(Cl)cc2cc2[nH]c3ccc(Br)cc3c21.[Cl-]

**Result**
[6.59, 6.36, 5.92, 7.52]
